- Tested on: SN12C renal
- measurement_notes: NCI tumour cell line growth inhibition, 48 h
assay_endpoint: TGI

                                   molecule  assay_endpoint  recorded_result
0          Cc1ccc2c(=O)c(-c3nnsn3)c[nH]c2n1             TGI         > 100 µM
1  CCOC(=O)NC(=O)c1cn(CCCCCCCCCCC(=O)N2CCN(CCn3cc(C(=O)NC(=O)OCC)c(=O)[nH]c3=O)CC2)c(=O)[nH]c1=O             TGI         > 100 µM
2  O=C1CCCCC1C1(O)C(=O)Nc2cc(F)ccc21 (stereo not given)             TGI         > 100 µM
3    CCOc1cc(NC(C)=O)ccc1C(=O)N/N=C/c1ccco1             TGI         > 100 µM
4  CC(C)[C@@H]1NC(=O)[C@]2(C)CSC(=N2)c2csc(n2)CNC(=O)C[C@@H](/C=C/CCS)OC1=O             TGI         > 100 µM

Recorded values, source PubChem BioAssay (NCI).
